Target: Human Calpain 9/NS1 (Homo sapiens, UniProt O14815)
Sequence (O14815 whole entry): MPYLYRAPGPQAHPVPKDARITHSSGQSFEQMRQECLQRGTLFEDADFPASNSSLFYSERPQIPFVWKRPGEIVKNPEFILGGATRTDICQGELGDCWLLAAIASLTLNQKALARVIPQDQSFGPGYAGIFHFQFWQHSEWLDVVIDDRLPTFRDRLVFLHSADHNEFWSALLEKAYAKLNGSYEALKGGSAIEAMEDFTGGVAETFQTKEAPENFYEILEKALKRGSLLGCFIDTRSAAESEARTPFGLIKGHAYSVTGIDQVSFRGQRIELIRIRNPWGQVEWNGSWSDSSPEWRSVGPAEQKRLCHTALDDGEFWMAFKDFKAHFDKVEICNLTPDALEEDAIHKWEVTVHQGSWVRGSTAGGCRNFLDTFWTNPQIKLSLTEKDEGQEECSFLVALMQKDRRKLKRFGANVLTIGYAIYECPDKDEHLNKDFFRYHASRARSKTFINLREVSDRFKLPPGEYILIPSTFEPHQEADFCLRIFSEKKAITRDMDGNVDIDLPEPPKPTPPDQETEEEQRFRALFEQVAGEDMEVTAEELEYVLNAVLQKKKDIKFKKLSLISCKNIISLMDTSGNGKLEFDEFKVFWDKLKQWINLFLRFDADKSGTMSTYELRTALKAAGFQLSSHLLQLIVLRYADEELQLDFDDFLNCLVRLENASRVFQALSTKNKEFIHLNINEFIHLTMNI
Sequence (P04632 whole entry partner): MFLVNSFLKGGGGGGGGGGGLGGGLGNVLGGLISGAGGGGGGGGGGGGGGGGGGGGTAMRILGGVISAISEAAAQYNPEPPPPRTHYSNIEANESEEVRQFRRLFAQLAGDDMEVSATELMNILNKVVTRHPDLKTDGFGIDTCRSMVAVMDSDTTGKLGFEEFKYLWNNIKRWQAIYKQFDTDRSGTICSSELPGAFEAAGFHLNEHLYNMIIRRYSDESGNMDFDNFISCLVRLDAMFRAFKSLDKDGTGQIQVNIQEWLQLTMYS
Experiment: Biochemical inhibition of calpain 9, continuous fluorescence (FRET substrate) assay
Conditions: mean, read-out: Human Calpain 9/NS1 IC50 (nM)_MEAN
IC50 values, listed per item

Consider the reported IC50 for these compounds:
compound | IC50
CCOC(=O)CCNC(=O)C(=O)[C@@H]1C/C=C/COCCOCc2ccccc2C(=O)N1 [Compound 63] | > 10000 nM
O=C[C@@H]1Cc2ccc(cc2)OC/C=C/COc2cccc(c2)-c2ccn(n2)-c2ncccc2C(=O)N1 [Compound 44] | < 3000 nM
Cc1cc(C)cc(CNC(=O)C(=O)C2CCCCOCCOCc3ccccc3C(=O)N2)c1 (centres unmarked) [Compound 111] | < 3000 nM
COc1ccc(CNC(=O)C(=O)C2CCCCOCCOCc3ccccc3C(=O)N2)c(OC)c1 (centres unmarked) [Compound 99] | 3000 to 10000 nM
O=C(NCCc1cccc(Cl)c1)C(=O)C1CCCCOCCOCc2ccccc2C(=O)N1 (centres unmarked) [Compound 89] | < 3000 nM
O=C[C@@H]1Cc2ccc(cc2)OCC=CCOc2ccc3nn(cc3c2)-c2ncccc2C(=O)N1 [Compound 71] | < 3000 nM
CN1CCN(CCCNC(=O)C(=O)C2CCCCOCCOCc3ccccc3C(=O)N2)CC1 (centres unmarked) [Compound 105] | < 3000 nM

Next, consider the following compound.
[Q] Note IC50 for the compound shown: O=C(NC1CC1)C(=O)[C@@H]1Cc2ccc(cc2)OC/C=C/COc2ccc3c(cnn3-c3ncccc3C(=O)N1)c2 [Compound 69]
[A] < 3000 nM

Where do the numbers come from? From patent US11292801B2.
